These entries and their values trace back to paper PMC10247784.

molecular target: mouse Tas2r144 (Mus musculus); construct: expressed in transfected cells; host or cells: HEK293T-Gα16gust44; assay: Calcium imaging assay (FLIPR), HEK293T-Gα16gust44 cells transfected with mouse Tas2r144; assay type: cell-based; conditions: Time 122.781 s
Sequence (Q7TQB8 whole entry): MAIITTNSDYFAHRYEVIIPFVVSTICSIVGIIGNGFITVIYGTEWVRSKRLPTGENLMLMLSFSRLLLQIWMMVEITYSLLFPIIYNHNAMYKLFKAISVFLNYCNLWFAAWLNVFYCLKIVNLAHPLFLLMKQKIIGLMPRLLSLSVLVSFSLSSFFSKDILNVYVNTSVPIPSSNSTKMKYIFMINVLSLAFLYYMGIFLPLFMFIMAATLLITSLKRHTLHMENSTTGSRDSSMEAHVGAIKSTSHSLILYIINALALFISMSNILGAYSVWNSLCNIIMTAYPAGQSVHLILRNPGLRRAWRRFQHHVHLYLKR
QUANTITY: RLU (RLU)
Reply with just the number (in RLU).

# count of solved cases: 3
{"columns": ["ITEM_SMILES", "RLU, RLU"],
 "data": [
  ["C[C@H](CCC(=O)NCC(=O)O)[C@H]1CC[C@H]2[C@@H]3[C@H](O)C[C@@H]4C[C@H](O)CC[C@]4(C)[C@H]3C[C@H](O)[C@]12C", 277.354],
  ["C[C@H](CCC(=O)NCCS(=O)(=O)O)[C@H]1CC[C@H]2[C@@H]3CC[C@@H]4C[C@H](O)CC[C@]4(C)[C@H]3CC[C@]12C", 361.618],
  ["C[C@H](CCC(=O)NCCS(=O)(=O)O)[C@H]1CC[C@H]2[C@@H]3[C@H](O)C[C@@H]4C[C@H](O)CC[C@]4(C)[C@H]3C[C@H](O)[C@]12C", 446.768]
]}

Any idea what RLU was measured for C[C@H](CCC(=O)O)[C@H]1CC[C@H]2[C@@H]3[C@H](O)C[C@@H]4C[C@H](O)CC[C@]4(C)[C@H]3C[C@H](O)[C@]12C ? 431.314
